- run description: amyloid nucleation score (Sup35N fusion, yeast selection) (log enrichment); library NNK2; higher = more nucleation; inactive = no reads after selection;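 also: zero at mode of non-aggregating sequences after 7 days selection at 30°C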
quantity kind: amyloid nucleation score

residue codes	quantity kind	observed
VYRNVLSRMQSLCVF	amyloid nucleation score	inactive
HTSFIMYMYHSRIWHGMYQT	amyloid nucleation score	inactive
DVYTQASLGMS	amyloid nucleation score	inactive

---

- run description: amyloid nucleation score (Sup35N fusion, yeast selection) (log enrichment); library NNK3; higher = more nucleation; inactive = no reads after selection

substance	amyloid nucleation score
SPFLCLLLDNEGKVLKVSYK	inactive
LTGFYYFTAYVCPNLILVTR	0.878
SPLRRCMCSFDDAKWWMCGE	0.803
IKFRDVEGKTLVQKCSQIF	inactive
YWIAIFTLHFLLDPRFRNSM	inactive
RDGTYRWSDLKTICLIRVSW	inactive
EVVPCCF	inactive

---

- run description: amyloid nucleation score (Sup35N fusion, yeast selection) (log enrichment); library NNK2; higher = more nucleation; inactive = no reads after selection
Threshold rule: amyloid nucleation score greater than or equal to 0.2 is condition met; below that, condition not met.

substance	label
KNFFSRRTW	condition met
NGADWATRRIWVSVRAVMGR	condition met
SGLVWVTN	condition not met
WSRIGG	condition not met
RVNNLLEKEGTSYGEFAYGL	condition not met
VKWKLGLTWMVVIIDGVLCV	condition met
LNLMVTW	condition not met
NSESVICVLQGGFIRACV	condition not met
IGIAKYLREGRSSPTESL	condition not met
MRQSNDWLFFLTNGTKCGEL	condition not met
FKAERSFLLSRYILKREGSQ	condition not met
AVPCNC	condition not met
LGIYVFAFKRMVNMEDLYTR	condition not met
CTLRGGYISWVQVYE	condition met
DSFASTQYCAVSSSVQLAWQ	condition met

---

- run description: amyloid nucleation score (Sup35N fusion, yeast selection) (log enrichment); library NNK2; higher = more nucleation; inactive = no reads after selection
Threshold rule: amyloid nucleation score greater than or equal to 0.6 is y; below that, n.

substance	label
PRRECVVRSAVPWYRRSRE	y
FNMFWVLGFTSRGTRGYSTS	y
AGCGIPALTYNNRRAKTHAQ	y
SSSSPHLDNLLGSGRLEIPS	n
HLFACSTYKSSHRVQVCTVI	n
VKEGSLCFYMRRRTGQL	n
SSLTPHWRVRKYDWYSIGSG	n
NVRMSGLF	y

---

- run description: amyloid nucleation score (Sup35N fusion, yeast selection) (log enrichment); library NNK2; higher = more nucleation; inactive = no reads after selection

substance	amyloid nucleation score
LRTGHPSI	inactive
IVIPSSK	inactive
MLGRVKTKVACYG	0.409
SVRHCLSLSSM	inactive
IISYEVWSPQQGDLNSHHCL	inactive
VHNVLKRVYSYGFFNKEHIY	inactive

---

- run description: amyloid nucleation score (Sup35N fusion, yeast selection) (log enrichment); library NNK2; higher = more nucleation; inactive = no reads after selection
Entries and their measured amyloid nucleation score follow.
quantity kind: amyloid nucleation score

substance	observed
MLFLMGPVWTCFKICNSLLT	0.333
VVIAKDIMFSGSRINMVGSV	-1.23
DIMTYPLRSINRRFKGVGRR	4.48
FCWRYNSKIRLKHGQDSGPR	-0.343
TMGYNFRCYVPLMNMLVRGV	-0.614
RVGSFG	0.596
MNWHTSYCLFDVRAKVAGNV	-0.393
GNCPLMPMKFRNRMSHSAFS	0.517
YGSRVYLRVWKLGCFGQYGE	1.68
LGVESTCRSWFMFLGTQRIA	-0.342
LDLALSQH	1.54
VQSTRIISCVLCLGDWLEDY	10.2
EEVQAFI	-0.22
WTYACPKRHNVIVVC	3
DWFGLCFMKRFKFGEYKACM	-1.04
LVAKHSG	0.693
CTTSWKMSCKFALGN	4.04
TDANESDR	0.905
RLSSHTVMAWVSCNWGDFTV	9.92
DTLCYNRMWFLPGLKMDLGG	7.62
GKNELYQVS	0.774
GLIGSERNSRVWRNYQMSCS	2.99
FQCSYVWVKLWHILN	-0.887
SFFCMKQMLNFL	0.533
QLPAHFFGLFCLFP	-1.41
CKWIKEIVVED	-0.981
QNGRMSTHTDFGGM	0.39
LLWWMCQYEIFWDKMLYLES	0.074
HRRCMFQNTAMRHRQWDA	0.841
NGVDMVVAAGLSGCRWGRIR	0.249
DVVCRMRATYCWALRVMGQR	1.58
FSIISGCFRNVVDLLRMLNL	-1.2
CLMDCGLYFTGSNLRAMCTW	-0.223
SSYTLGFFRCNRFWCLCIDC	-1.2
LIAGYDAWWSSKMSRHKVSV	-0.232
ARLLTRNINESNRFI	0.065
VIIRSFR	-0.629
GETVGFKARFMLMHTSFLLR	4.9
VLFRELRSTTASRTGDGDMM	4.61
VTSLDFKFNVGEY	0.832
KSMFRTNLYIIILQSSTRFQ	-1.06
PIRWVGHNKGFQGL	-1.22
ANGGYMVYSFAEEYYYDWCT	-0.063
VVTLRCSIVKEDTNGLLPGV	2.79

---

- run description: amyloid nucleation score (Sup35N fusion, yeast selection) (log enrichment); library NNK1; higher = more nucleation; inactive = no reads after selection

substance	amyloid nucleation score
MMSPLKR	inactive
VNILDLKTHLRR	inactive
MPDYVSFTSRMPLRLKLLLS	inactive

---

Entries and their measured amyloid nucleation score follow.
- run description: amyloid nucleation score (Sup35N fusion, yeast selection) (log enrichment); library NNK1; higher = more nucleation; inactive = no reads after selection
quantity kind: amyloid nucleation score

substance	quantity kind	observed
STTYCFFSYAGLRICYALMG	amyloid nucleation score	1.3
VALWGQYGTSIGAIGAVFSH	amyloid nucleation score	-0.03
LLCFIIILCSRELNVDA	amyloid nucleation score	0.279
VCELHLILM	amyloid nucleation score	0.425
ATYYFICMLIVQVHFCLFTM	amyloid nucleation score	-0.992
RRTIYASLRLY	amyloid nucleation score	0.066
RFSRVFIRLMGDVALSSGLL	amyloid nucleation score	0.532
RGGNIVKHRLFGPDGGAYWK	amyloid nucleation score	-0.591
VFRGSWCRTNNVIPGLFNKA	amyloid nucleation score	0.488
KTFVPWISCATSIEVFYVAS	amyloid nucleation score	1
KVLNILYWGRTDVG	amyloid nucleation score	1.41
VFSYGWLYQAPFFRFLHTGF	amyloid nucleation score	0.109
YKGWYFFYVCFSKLSIGS	amyloid nucleation score	-0.305
RTLPSG	amyloid nucleation score	-0.12
KVALESSRAV	amyloid nucleation score	0.036
WISFPLV	amyloid nucleation score	0.046
GSTCIRTGSVIVGRL	amyloid nucleation score	0.301
DGLTLFLSRNGDYYSFTKIT	amyloid nucleation score	0.197
MNVFRGSVPAFPLPPYMRLA	amyloid nucleation score	-0.242
TCRIVVGSSCFRSTVFSFLY	amyloid nucleation score	1.45
RATCVFCYTICFSWPSVWTF	amyloid nucleation score	3.5
GYCTPNDPVIFWDFRVMTGS	amyloid nucleation score	-0.544
IYQQIYN	amyloid nucleation score	-0.807
YNLSGFDNGFSISLSCSDVA	amyloid nucleation score	0.886
NILCTLPSIGILSAI	amyloid nucleation score	-0.249
FDAAIVLCSDVSIKGCLSRN	amyloid nucleation score	1.27
GCLRVSDTIRGMPRQSLDWA	amyloid nucleation score	0.445
LIPCGPLFLFMQTNIDRANM	amyloid nucleation score	7.84
GKSWFGYCVSLVCMSWVLSD	amyloid nucleation score	0.67
TFCRLISGPKIRL	amyloid nucleation score	-0.058
NLSAVRLAYLPCVSHTHCAV	amyloid nucleation score	0.875
LAFTCFH	amyloid nucleation score	0.568
YLAGILHTCLTLDSDVRFYT	amyloid nucleation score	0.722
MKLNGFVWPG	amyloid nucleation score	-0.256
MLPMLQPTLQET	amyloid nucleation score	0.313
MILTTPAAERLLYYILPLRD	amyloid nucleation score	-0.616
GYAFVY	amyloid nucleation score	-0.037
VLDQHPRDFESRGMVMANFY	amyloid nucleation score	1.55
VGKVCRTFNRSMGETS	amyloid nucleation score	0.439
VFLLKDRNTTCLWKSVIQQM	amyloid nucleation score	0.494
DSRCHSSSGDRPTLAVYT	amyloid nucleation score	-0.198
YCSSVEVGVYLNVLICFSGL	amyloid nucleation score	3.18
CVIRKSLFKCQFSMIRESWV	amyloid nucleation score	0.298
YIDIVGSSW	amyloid nucleation score	4.83
GGWGRGECPYSHTKWYVKSG	amyloid nucleation score	-0.999
HSFFMFP	amyloid nucleation score	-0.39
LVFKLLVLDHKSFGLLMVDS	amyloid nucleation score	-0.355

---

Entries and their measured amyloid nucleation score follow.
- run description: amyloid nucleation score (Sup35N fusion, yeast selection) (log enrichment); library NNK1; higher = more nucleation; inactive = no reads after selection

substance	amyloid nucleation score
HVVVHDGSTQLWDARVRKWP	0.558
GFVTWPLSRSPGSPGCAALM	0.015
WFTPNVWAGGVWHHVLGFGG	-0.93
ENGIGN	0.453
